B1: Vacuolar Protein Sorting-Associated 26B (AtVPS26B) [Arabidopsis thaliana] / Vacuolar Protein Sorting-Associated 26A (AtVPS26A) [Arabidopsis thaliana] (parent complex)
chain 1: MNYLLGAFKPACNISITFSDGKNRKQVPMKKENGQTALVPLFHSQDTISGKVCIEPYQGKKVEHNGVKVELLGQIEMYFDRGNFYDFTSLVRELDVPGEIYERKTYPFEFPTVEMPYETYNGVNVRLRYVLKVTVTRGYAGSILEYQELVVRNYAPLPDINNSIKMEVGIEDCLHIEFEYNKSKYHLKDVILGKIYFLLVRIKMKNMDLEIRRRESTGAGANTHVETETLAKFELMDGTPVRGESIPVRLFLAPYDLTPTHRNINNKFSVKYYLNLVLVDEEDRRYFKQQEITLYRLKEDASS
chain 2: MNYLLGAFKPACNISITFTDGKNRKQVPTKKDNGQIVMNPLFQSQETIAGKINIEPYQGKKVEHNGVKVELLGQIEMYFDRGNFYDFTSLVREIDVPGEIYERKTYPFEFSSVEMPYETYNGVNVRLRYVLKVTVTRGYAGSIVEYQDFVVRNYVPLPPINNSIKMEVGIEDCLHIEFEYNKSKYHLKDVILGKIYFLLVRIKIKNMDLEIRRRESTGAGANTHVETETLAKFELMDGAPVRGESIPVRVFLTPYDLTPTHKNINNKFSVKYYLNLVLVDEEDRRYFKQQEITLYRLKEETS

Variants of: B1
Measurement Protocol: Microscale Thermophoresis (MST); parent: 18 nM
Assay Endpoint: Kd (nM)
Kindly answer with a numeric value in nM, unit omitted.

State, in one line, measured Kd of chain 1 Y85A, chain 1 E93A 525

The measured values listed here are drawn from paper PMC11580166.
